protocol description: xn = mol fraction of the nth substance listed
condition summary: 348.15 K; 100 kPa; Liquid; Vibrating tube method; x2 = 0.25
observable: mass density (kg/m3)
Numeric answer only, unit kg/m3 assumed.

Recorded results for 4 compounds are shown here.
compound	unit of measure	obs value
CCCCn1cc[n+](C)c1.O=S(=O)([O-])C(F)(F)F [1-butyl-3-methylimidazolium trifluoromethanesulfonate] + CCCC[n+]1ccn(C)c1.O=S(=O)([N-]S(=O)(=O)C(F)(F)F)C(F)(F)F	kg/m3	1298.1
CCCCn1cc[n+](C)c1.COP(=O)([O-])OC [1-butyl-3-methyl-1H-imidazolium dimethylphosphate] + CCCC[n+]1ccn(C)c1.O=S(=O)([N-]S(=O)(=O)C(F)(F)F)C(F)(F)F	kg/m3	1202.5
CC(=O)[O-].CCCCn1cc[n+](C)c1 [1-butyl-3-methylimidazolium acetate] + CCCC[n+]1ccn(C)c1.O=S(=O)([N-]S(=O)(=O)C(F)(F)F)C(F)(F)F	kg/m3	1146.1
CCCCn1cc[n+](C)c1.N#C[S-] [1-butyl-3-methylimidazolium thiocyanate] + CCCC[n+]1ccn(C)c1.O=S(=O)([N-]S(=O)(=O)C(F)(F)F)C(F)(F)F	kg/m3	1160.6

Here is another compound to look at.
In: Would you mind telling me what mass density value was observed for CCCCn1cc[n+](C)c1.F[P-](F)(F)(F)(F)F [1-butyl-3-methylimidazolium hexafluorophosphate] + CCCC[n+]1ccn(C)c1.O=S(=O)([N-]S(=O)(=O)C(F)(F)F)C(F)(F)F ?
Out: 1346.9

----------
mass density values, listed per item
protocol description: xn = mol fraction of the nth substance listed
condition summary: 283.15 K; 100 kPa; Liquid; Vibrating tube method; x2 = 0.25
Numeric answer only, unit kg/m3 assumed.

compound	mass density [kg/m3]
CC(=O)[O-].CCCCn1cc[n+](C)c1 [1-butyl-3-methylimidazolium acetate] + CCCC[n+]1ccn(C)c1.O=S(=O)([N-]S(=O)(=O)C(F)(F)F)C(F)(F)F	1193.2

In: Would you mind telling me what mass density value was observed for CCCCn1cc[n+](C)c1.F[P-](F)(F)(F)(F)F [1-butyl-3-methylimidazolium hexafluorophosphate] + CCCC[n+]1ccn(C)c1.O=S(=O)([N-]S(=O)(=O)C(F)(F)F)C(F)(F)F ?
Out: 1402.5

In: Same lookup for CCCCn1cc[n+](C)c1.COP(=O)([O-])OC [1-butyl-3-methyl-1H-imidazolium dimethylphosphate] + CCCC[n+]1ccn(C)c1.O=S(=O)([N-]S(=O)(=O)C(F)(F)F)C(F)(F)F , please.
Out: 1251

In: Same lookup for CCCCn1cc[n+](C)c1.O=S(=O)([O-])C(F)(F)F [1-butyl-3-methylimidazolium trifluoromethanesulfonate] + CCCC[n+]1ccn(C)c1.O=S(=O)([N-]S(=O)(=O)C(F)(F)F)C(F)(F)F , please.
Out: 1352.7

In: Same lookup for CCCCn1cc[n+](C)c1.N#C[S-] [1-butyl-3-methylimidazolium thiocyanate] + CCCC[n+]1ccn(C)c1.O=S(=O)([N-]S(=O)(=O)C(F)(F)F)C(F)(F)F , please.
Out: 1206.2

----------
condition summary: 328.15 K; 100 kPa; Liquid; Concentric cylinders viscometry
I would appreciate it if you labelled entries YES when viscosity is 30 mPa·s or higher, otherwise NO.

These solved cases illustrate the format of a correct answer.
compound	group
CCCCn1cc[n+](C)c1.N#CN=C=[N-] [1-butyl-3-methylimidazolium dicyanamide]	NO
CC(=O)[O-].CCCCn1cc[n+](C)c1 [1-butyl-3-methylimidazolium acetate]	YES
CCCCn1cc[n+](C)c1.COP(=O)([O-])OC [1-butyl-3-methyl-1H-imidazolium dimethylphosphate]	YES

In: Assess whether reported viscosity for CCCCn1cc[n+](C)c1.N#C[S-] [1-butyl-3-methylimidazolium thiocyanate] sits at 30 mPa·s or higher.
Out: NO

----------
condition summary: 333.15 K; 100 kPa; Liquid; Concentric cylinders viscometry
I would appreciate it if you labelled entries yes when viscosity is 40 mPa·s or higher, otherwise no.

These solved cases illustrate the format of a correct answer.
molecule	group
CCCCn1cc[n+](C)c1.N#CN=C=[N-] [1-butyl-3-methylimidazolium dicyanamide]	no
CC(=O)[O-].CCCCn1cc[n+](C)c1 [1-butyl-3-methylimidazolium acetate]	yes
CCCCn1cc[n+](C)c1.COP(=O)([O-])OC [1-butyl-3-methyl-1H-imidazolium dimethylphosphate]	yes
CCCCn1cc[n+](C)c1.F[B-](F)(F)F [1-butyl-3-methylimidazolium tetrafluoroborate]	no

In: Assess whether reported viscosity for CCCCn1cc[n+](C)c1.N#C[S-] [1-butyl-3-methylimidazolium thiocyanate] sits at 40 mPa·s or higher.
Out: no

----------
mass density values, listed per item
condition summary: 353.15 K; 100 kPa; Liquid; Vibrating tube method
± gives the expanded uncertainty stated by the source.

Recorded results for 3 compounds are shown here.
compound	obs value
CCCCn1cc[n+](C)c1.N#C[S-] [1-butyl-3-methylimidazolium thiocyanate]	1038.6 ± 1 kg/m3
CC(=O)[O-].CCCCn1cc[n+](C)c1 [1-butyl-3-methylimidazolium acetate]	1019.7 ± 0.9 kg/m3
CCCCn1cc[n+](C)c1.COP(=O)([O-])OC [1-butyl-3-methyl-1H-imidazolium dimethylphosphate]	1122 ± 1.1 kg/m3

In: Would you mind telling me what mass density value was observed for CCCCn1cc[n+](C)c1.F[B-](F)(F)F [1-butyl-3-methylimidazolium tetrafluoroborate] ?
Out: 1163.4 ± 0.6 kg/m3

In: Same lookup for CCCCn1cc[n+](C)c1.N#CN=C=[N-] [1-butyl-3-methylimidazolium dicyanamide] , please.
Out: 1026.1 ± 1 kg/m3

----------
condition summary: 348.15 K; 100 kPa; Liquid; Concentric cylinders viscometry
viscosity values, listed per item
Numeric answer only, unit mPa·s assumed.

Recorded results for 4 molecules are shown here.
molecule	unit of measure	viscosity
CCCCn1cc[n+](C)c1.F[B-](F)(F)F [1-butyl-3-methylimidazolium tetrafluoroborate]	mPa·s	16.26
CCCCn1cc[n+](C)c1.N#CN=C=[N-] [1-butyl-3-methylimidazolium dicyanamide]	mPa·s	7.488
CCCCn1cc[n+](C)c1.N#C[S-] [1-butyl-3-methylimidazolium thiocyanate]	mPa·s	11.71
CCCCn1cc[n+](C)c1.COP(=O)([O-])OC [1-butyl-3-methyl-1H-imidazolium dimethylphosphate]	mPa·s	44.01

In: Would you mind telling me what viscosity value was observed for CC(=O)[O-].CCCCn1cc[n+](C)c1 [1-butyl-3-methylimidazolium acetate] ?
Out: 23.88

----------
protocol description: xn = mol fraction of the nth substance listed
condition summary: 318.15 K; 100 kPa; Liquid; Concentric cylinders viscometry; x2 = 0.25
viscosity values, listed per item
Numeric answer only, unit mPa·s assumed.

Recorded results for 4 compounds are shown here.
compound	viscosity, mPa·s
CCCCn1cc[n+](C)c1.N#C[S-] [1-butyl-3-methylimidazolium thiocyanate] + CCCC[n+]1ccn(C)c1.O=S(=O)([N-]S(=O)(=O)C(F)(F)F)C(F)(F)F	28.05
CCCCn1cc[n+](C)c1.O=S(=O)([O-])C(F)(F)F [1-butyl-3-methylimidazolium trifluoromethanesulfonate] + CCCC[n+]1ccn(C)c1.O=S(=O)([N-]S(=O)(=O)C(F)(F)F)C(F)(F)F	32.19
CCCCn1cc[n+](C)c1.COP(=O)([O-])OC [1-butyl-3-methyl-1H-imidazolium dimethylphosphate] + CCCC[n+]1ccn(C)c1.O=S(=O)([N-]S(=O)(=O)C(F)(F)F)C(F)(F)F	127.53
CCCCn1cc[n+](C)c1.F[P-](F)(F)(F)(F)F [1-butyl-3-methylimidazolium hexafluorophosphate] + CCCC[n+]1ccn(C)c1.O=S(=O)([N-]S(=O)(=O)C(F)(F)F)C(F)(F)F	58.45

Here is another compound to look at.
In: Would you mind telling me what viscosity value was observed for CC(=O)[O-].CCCCn1cc[n+](C)c1 [1-butyl-3-methylimidazolium acetate] + CCCC[n+]1ccn(C)c1.O=S(=O)([N-]S(=O)(=O)C(F)(F)F)C(F)(F)F ?
Out: 62.28

----------
protocol description: xn = mol fraction of the nth substance listed
condition summary: 298.15 K; 100 kPa; Liquid; Concentric cylinders viscometry; x2 = 0.25
Binary call on viscosity with cut-off 70 mPa·s: strictly below means fulfilled, and equality or higher means not fulfilled.

molecule	group
CCCCn1cc[n+](C)c1.F[P-](F)(F)(F)(F)F [1-butyl-3-methylimidazolium hexafluorophosphate] + CCCC[n+]1ccn(C)c1.O=S(=O)([N-]S(=O)(=O)C(F)(F)F)C(F)(F)F	not fulfilled

In: Criterion: viscosity strictly below 70 mPa·s. Is it met by CCCCn1cc[n+](C)c1.N#C[S-] [1-butyl-3-methylimidazolium thiocyanate] + CCCC[n+]1ccn(C)c1.O=S(=O)([N-]S(=O)(=O)C(F)(F)F)C(F)(F)F ?
Out: fulfilled

In: Same lookup for CCCCn1cc[n+](C)c1.COP(=O)([O-])OC [1-butyl-3-methyl-1H-imidazolium dimethylphosphate] + CCCC[n+]1ccn(C)c1.O=S(=O)([N-]S(=O)(=O)C(F)(F)F)C(F)(F)F , please.
Out: not fulfilled

In: Same lookup for CC(=O)[O-].CCCCn1cc[n+](C)c1 [1-butyl-3-methylimidazolium acetate] + CCCC[n+]1ccn(C)c1.O=S(=O)([N-]S(=O)(=O)C(F)(F)F)C(F)(F)F , please.
Out: not fulfilled
